- experimental_system: Beta-2 adrenergic receptor (Homo sapiens) (UniProt P07550)
- Sequence (P07550 whole entry, looked up): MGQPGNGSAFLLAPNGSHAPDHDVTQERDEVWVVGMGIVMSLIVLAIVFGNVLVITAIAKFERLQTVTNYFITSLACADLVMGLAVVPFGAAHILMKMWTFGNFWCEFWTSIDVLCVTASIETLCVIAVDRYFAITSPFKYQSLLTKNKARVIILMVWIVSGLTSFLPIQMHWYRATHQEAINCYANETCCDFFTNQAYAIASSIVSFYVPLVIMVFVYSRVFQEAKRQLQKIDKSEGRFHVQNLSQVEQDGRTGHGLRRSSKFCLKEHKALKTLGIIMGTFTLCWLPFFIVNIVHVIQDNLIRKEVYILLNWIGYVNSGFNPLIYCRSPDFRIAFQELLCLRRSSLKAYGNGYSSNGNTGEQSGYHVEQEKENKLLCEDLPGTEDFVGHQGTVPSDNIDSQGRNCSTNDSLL
- procedure_text: Inhibition of adrenergic beta-2 receptor (unknown origin) at 10 uM relative to control
readout_label: inhibition (%)
Report the figure in % without appending any unit label.

Exercise: Param item = `Cl.NCc1ccc(OCc2cccc(Cl)c2)cc1` ; retrieve measured inhibition.
Solution: -5.7

Exercise: Return reported inhibition; argument: `Cl.NCc1ccc(OCc2ccccc2)cc1`
Solution: 11.8

Exercise: Which inhibition is listed for `Cl.NCc1ccc(OCc2ccc(OC(F)(F)F)cc2)cc1` ?
Solution: 9.1

Exercise: What does the data say about its inhibition? Entry: `Cl.NCc1ccc(OCc2ccc(F)cc2)cc1`
Solution: 2.2

Exercise: Value lookup for inhibition; key = `Cl.NCc1ccc(OCc2cccc(OC(F)(F)F)c2)cc1`
Solution: -8.1

Exercise: What value of inhibition has been recorded for this entry: `Cl.NCc1ccc(OCc2cccc(F)c2)cc1`
Solution: 9.2

Exercise: Given the compound `Cl.NCc1ccc(OCc2ccccc2OC(F)(F)F)cc1` , what is its reported inhibition?
Solution: 5

Exercise: # query: inhibition of entry `Cl.NCc1ccc(OCc2ccc(Cl)cc2)cc1`
Solution: 17.1

Exercise: Which measured inhibition value corresponds to `Cl.NCc1ccc(OCc2ccccc2F)cc1` ?
Solution: 17.4

* * *

- experimental_system: Muscarinic acetylcholine receptor M5 (Homo sapiens)
- procedure_text: Inhibition of muscarinergic M5 receptor (unknown origin) at 10 uM relative to control
readout_label: inhibition (%)
// return numeric value only (unit: %, not printed)

Exercise: Reported inhibition, compound `Cl.NCc1ccc(OCc2ccccc2F)cc1` : ____
Solution: -8.5

Exercise: Consider the compound `Cl.NCc1ccc(OCc2ccc(OC(F)(F)F)cc2)cc1` and give its measured inhibition.
Solution: 1.7

Exercise: Could you share which inhibition value was measured for `Cl.NCc1ccc(OCc2ccccc2)cc1` ?
Solution: -2.7

Exercise: Find the recorded inhibition belonging to `Cl.NCc1ccc(OCc2ccc(F)cc2)cc1` and report it.
Solution: 6.4

Exercise: Request the reported inhibition associated with `Cl.NCc1ccc(OCc2cccc(OC(F)(F)F)c2)cc1`
Solution: 0.8

Exercise: What value of measured inhibition is listed for `Cl.NCc1ccc(OCc2ccc(Cl)cc2)cc1` ?
Solution: 13.6

Exercise: // lookup inhibition for `Cl.NCc1ccc(OCc2cccc(Cl)c2)cc1`
Solution: 17.7

Exercise: If you can, please state the reported inhibition value of `Cl.NCc1ccc(OCc2ccccc2OC(F)(F)F)cc1` .
Solution: 0.4

* * *

- experimental_system: 5-hydroxytryptamine receptor 1A (Homo sapiens)
- Sequence (whole entry): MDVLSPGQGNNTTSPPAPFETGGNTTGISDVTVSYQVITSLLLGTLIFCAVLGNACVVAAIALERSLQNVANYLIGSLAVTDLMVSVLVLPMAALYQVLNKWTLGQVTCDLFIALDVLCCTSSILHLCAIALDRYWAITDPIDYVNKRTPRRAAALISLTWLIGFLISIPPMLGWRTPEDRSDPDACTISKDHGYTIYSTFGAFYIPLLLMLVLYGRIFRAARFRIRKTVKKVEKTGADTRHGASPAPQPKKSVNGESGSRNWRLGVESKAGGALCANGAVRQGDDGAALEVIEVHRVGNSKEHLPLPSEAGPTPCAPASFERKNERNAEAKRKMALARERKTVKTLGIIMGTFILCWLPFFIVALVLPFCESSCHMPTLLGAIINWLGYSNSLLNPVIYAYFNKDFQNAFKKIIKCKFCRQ
- procedure_text: Inhibition of 5-HT1A receptor (unknown origin) at 10 uM relative to control
inhibition of 30% or higher: YES. Under 30%: NO.

Exercise: Item `Cl.NCc1ccc(OCc2cccc(F)c2)cc1` with inhibition of 30% or above?
Solution: YES

Exercise: Please indicate if the recorded inhibition for `Cl.NCc1ccc(OCc2ccccc2OC(F)(F)F)cc1` meets or exceeds 30%.
Solution: NO

Exercise: Is inhibition for `Cl.NCc1ccc(OCc2ccc(OC(F)(F)F)cc2)cc1` at or above 30%?
Solution: NO

Exercise: Evaluate `Cl.NCc1ccc(OCc2ccccc2)cc1` : inhibition at minimum 30%?
Solution: NO

Exercise: Would you say `Cl.NCc1ccc(OCc2ccc(F)cc2)cc1` shows inhibition at minimum 30%?
Solution: YES

Exercise: Please check the record `Cl.NCc1ccc(OCc2ccc(Cl)cc2)cc1` and state if its inhibition is at or above 30%.
Solution: NO

Exercise: Has `Cl.NCc1ccc(OCc2cccc(OC(F)(F)F)c2)cc1` a recorded inhibition greater than or equal to 30%?
Solution: YES

Exercise: Is reported inhibition greater than or equal to 30% here: `Cl.NCc1ccc(OCc2ccccc2F)cc1`
Solution: YES

Exercise: API: above_or_equal(metric=inhibition, cutoff=30%) for item `Cl.NCc1ccc(OCc2cccc(Cl)c2)cc1`
Solution: NO
